ASSAYED SYSTEM: Ubiquitin carboxyl-terminal hydrolase 28 (Homo sapiens)
ASSAY PROTOCOL: Concentration-response biochemical assay confirming initial hits as inhibitors of ubiquitin-specific protease 28 (AID 1645866)
RECORDED CONDITIONS: purified USP28, ubiquitin-rhodamine fluorescence, 30 min
Calls of active or inactive are those of the source.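 The calls were made as follows: active = in confirmatory dose-response testing, peak deubiquitinase inhibition of 30% or more; inactive = the rest.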

{"COMPOUND": "Cc1ccc(Cn2cc(-c3noc(-c4ccncc4)n3)nn2)cc1", "ASSAYED SYSTEM": "Ubiquitin carboxyl-terminal hydrolase 28 (Homo sapiens)", "IC50": "36.9 µM"}
{"COMPOUND": "O=C(Cn1cnc2ccccc21)Nc1ccc2c(c1)CCC2", "ASSAYED SYSTEM": "Ubiquitin carboxyl-terminal hydrolase 28 (Homo sapiens)", "IC50": "28.7 µM"}
{"COMPOUND": "COc1ccccc1N1CCN(C(=O)c2ccc3c(c2)N(Cc2cc(C)ccc2C)C(=O)c2ccccc2S3=O)CC1 (stereo not given)", "ASSAYED SYSTEM": "Ubiquitin carboxyl-terminal hydrolase 28 (Homo sapiens)", "IC50": "29.7 µM"}
{"COMPOUND": "O=C(COc1nc2ccccc2nc1N1CCOCC1)Nc1cccc(S(=O)(=O)N2CCCCC2)c1", "ASSAYED SYSTEM": "Ubiquitin carboxyl-terminal hydrolase 28 (Homo sapiens)", "IC50": "> 50 µM (inactive)"}
{"COMPOUND": "O=C(Cc1cccc2ccccc12)Nc1nc2ccc(F)cc2s1", "ASSAYED SYSTEM": "Ubiquitin carboxyl-terminal hydrolase 28 (Homo sapiens)", "IC50": "36.9 µM"}

* * *

ASSAYED SYSTEM: UniProtKB Q96RU2
Sequence (Q96RU2 whole entry, looked up): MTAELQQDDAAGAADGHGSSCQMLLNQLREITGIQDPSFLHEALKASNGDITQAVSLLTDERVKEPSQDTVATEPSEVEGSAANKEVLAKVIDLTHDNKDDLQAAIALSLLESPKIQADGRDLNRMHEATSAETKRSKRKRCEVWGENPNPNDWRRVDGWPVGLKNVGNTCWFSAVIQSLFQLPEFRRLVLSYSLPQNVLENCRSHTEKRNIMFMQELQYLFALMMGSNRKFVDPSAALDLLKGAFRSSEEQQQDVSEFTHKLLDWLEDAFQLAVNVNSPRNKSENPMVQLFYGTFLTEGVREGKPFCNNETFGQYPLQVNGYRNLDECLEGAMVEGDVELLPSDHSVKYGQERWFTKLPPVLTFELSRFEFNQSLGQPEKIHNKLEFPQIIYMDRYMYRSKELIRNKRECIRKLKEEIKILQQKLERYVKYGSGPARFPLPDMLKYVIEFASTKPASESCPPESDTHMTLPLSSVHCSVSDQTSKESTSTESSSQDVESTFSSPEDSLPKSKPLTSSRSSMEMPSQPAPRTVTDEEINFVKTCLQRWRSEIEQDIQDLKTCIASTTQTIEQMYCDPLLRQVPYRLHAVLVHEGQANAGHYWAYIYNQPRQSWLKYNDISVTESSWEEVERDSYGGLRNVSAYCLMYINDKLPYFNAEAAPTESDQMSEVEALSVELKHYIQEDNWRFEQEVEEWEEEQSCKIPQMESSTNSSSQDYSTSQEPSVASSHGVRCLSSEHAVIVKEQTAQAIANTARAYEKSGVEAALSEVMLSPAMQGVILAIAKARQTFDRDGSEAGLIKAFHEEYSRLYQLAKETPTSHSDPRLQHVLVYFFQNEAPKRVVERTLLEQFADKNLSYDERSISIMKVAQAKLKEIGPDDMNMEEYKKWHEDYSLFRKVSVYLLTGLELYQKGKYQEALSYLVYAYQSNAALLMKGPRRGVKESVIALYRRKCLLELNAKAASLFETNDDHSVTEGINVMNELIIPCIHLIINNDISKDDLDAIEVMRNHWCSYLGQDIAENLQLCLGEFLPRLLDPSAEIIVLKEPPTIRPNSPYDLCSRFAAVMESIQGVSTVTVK
ASSAY PROTOCOL: Concentration-response biochemical assay confirming initial hits as inhibitors of ubiquitin-specific protease 28 (AID 1645866)
RECORDED CONDITIONS: purified USP28, ubiquitin-rhodamine fluorescence, 30 min
Active and inactive are the calls of the source.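 How the source made its calls: active means in confirmatory dose-response testing, peak deubiquitinase inhibition of 30% or more; inactive means the rest.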
Possible outcomes: yes (active), no (inactive)

{"COMPOUND": "c1ccc(Cc2nn3c(-c4cccnc4)nnc3c3ccccc23)cc1", "QUALITATIVE LABEL": "yes"}
{"COMPOUND": "COc1ccc(CCn2cnc3c4ccccc4n(C)c3c2=O)cc1OC", "QUALITATIVE LABEL": "yes"}
{"COMPOUND": "C[C@@H]1O[C@@H](O[C@H]2[C@H](O[C@H]3[C@H](O[C@H]4CC[C@@]5(C)[C@@H](CC[C@]6(C)[C@@H]5CC=C5[C@@H]7CC(C)(C)CC(=O)[C@]7(C)CC[C@]56C)[C@@]4(C)CO)O[C@H](C(=O)O)[C@@H](O)[C@@H]3O)OC[C@@H](O)[C@@H]2O)[C@H](O)[C@H](O)[C@H]1O", "QUALITATIVE LABEL": "yes"}
{"COMPOUND": "CCN(CC)c1nc(F)c2c(c1F)S(=O)(=O)CCN2Cc1ccccc1", "QUALITATIVE LABEL": "no"}
{"COMPOUND": "O=C(c1ccco1)N1CCCC2(C1)Nc1cccnc1NC2=NC1CCCC1 (stereo not drawn)", "QUALITATIVE LABEL": "no"}
{"COMPOUND": "CC(C)OC(=O)c1cc2c(ccn2C)n1CC(=O)N1CCN(C(=O)c2ccco2)CC1", "QUALITATIVE LABEL": "no"}
{"COMPOUND": "FC(F)(F)c1cccc(N2CCN(c3nc4ccccc4n4nnnc34)CC2)c1", "QUALITATIVE LABEL": "no"}
{"COMPOUND": "Cc1cc(C(F)(F)F)n(-c2ccc(NC(=O)Nc3cccc(C(F)(F)F)c3)cc2)n1", "QUALITATIVE LABEL": "yes"}
